# ka per entry
target: c-Met-Fc (Homo sapiens, UniProt P08581)
Sequence (P08581 with tags, fused parts or gaps limits assumed): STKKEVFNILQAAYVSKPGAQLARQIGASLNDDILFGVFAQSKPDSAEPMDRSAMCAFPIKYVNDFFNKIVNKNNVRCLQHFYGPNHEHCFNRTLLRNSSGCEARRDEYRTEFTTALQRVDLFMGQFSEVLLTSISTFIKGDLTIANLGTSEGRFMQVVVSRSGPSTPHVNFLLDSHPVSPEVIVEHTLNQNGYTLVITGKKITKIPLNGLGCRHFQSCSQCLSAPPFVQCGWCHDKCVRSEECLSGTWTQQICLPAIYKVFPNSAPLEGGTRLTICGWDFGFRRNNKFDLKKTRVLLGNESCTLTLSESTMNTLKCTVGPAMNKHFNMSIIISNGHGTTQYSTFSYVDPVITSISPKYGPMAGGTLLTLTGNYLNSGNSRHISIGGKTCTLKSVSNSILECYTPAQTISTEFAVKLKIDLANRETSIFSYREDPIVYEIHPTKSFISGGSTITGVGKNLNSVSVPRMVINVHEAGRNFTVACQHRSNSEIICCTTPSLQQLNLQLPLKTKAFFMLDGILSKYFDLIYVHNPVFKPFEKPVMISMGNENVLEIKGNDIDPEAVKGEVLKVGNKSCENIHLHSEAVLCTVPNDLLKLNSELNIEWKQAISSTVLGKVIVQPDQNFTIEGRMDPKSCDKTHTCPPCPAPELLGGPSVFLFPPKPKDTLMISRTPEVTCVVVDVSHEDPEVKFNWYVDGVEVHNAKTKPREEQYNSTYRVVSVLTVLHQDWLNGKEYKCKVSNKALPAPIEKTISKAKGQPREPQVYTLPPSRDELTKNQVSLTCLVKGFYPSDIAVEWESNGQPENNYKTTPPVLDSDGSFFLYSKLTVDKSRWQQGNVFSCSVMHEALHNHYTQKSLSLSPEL
Sequence (P08581 25-307 limits assumed): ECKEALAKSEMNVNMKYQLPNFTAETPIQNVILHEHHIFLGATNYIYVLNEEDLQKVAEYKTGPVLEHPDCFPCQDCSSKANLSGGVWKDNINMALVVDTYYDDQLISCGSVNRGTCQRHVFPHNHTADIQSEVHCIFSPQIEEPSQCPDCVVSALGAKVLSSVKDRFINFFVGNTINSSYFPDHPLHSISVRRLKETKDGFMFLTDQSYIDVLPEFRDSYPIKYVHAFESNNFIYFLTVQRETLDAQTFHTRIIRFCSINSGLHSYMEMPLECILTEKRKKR
protocol.text: Binding ability by surface plasmon resonance (SPR, Biacore)
test.parameters: Table 11, monomer and dimeric peptides
Bridges are numbered along the chain shown (N, C = ends). Roman numbers before positions name the chains, in order. Where no end group is shown, it is not given here. [ ]: non-standard residue; d: D form. βAla = NCCC(=O)O
measured.parameter: ka

substance: D5-4 BMH: dimeric peptide: two D5-4 macrocycles linked through C-terminal Cys by BMH linker (peptide 1 {CH2CO}-[dY]WYYAWDQTYKAFPCG; peptide 2 {CH2CO}-[dY]WYYAWDQTYKAFPCG; thioether I:N-I:15, II:N-II:15; not fully specified (C-terminus); also: dimer: two chains joined by BMH through an added C-terminal Cys not in the letters)
measured.parameter: ka
val: 0.046 10^6 M^−1s^−1
--
substance: L5-2 Bis-MAL-PEG11: dimeric peptide: two L5-2 macrocycles linked through C-terminal Cys by Bis-MAL-PEG11 linker ({CH2CO}-YISWNEFNSPNWRFITCG[βAla]C-NH2; thioether N-17; not fully specified (residue 20); also: dimer: two copies joined by Bis-MAL-PEG11, linker at 20 via Bis-MAL-PEG11, other end not in the chain)
measured.parameter: ka
val: 0.098 10^6 M^−1s^−1
--
substance: L5-2 BMH: dimeric peptide: two L5-2 macrocycles linked through C-terminal Cys by BMH linker ({CH2CO}-YISWNEFNSPNWRFITCG[βAla]C-NH2; thioether N-17; not fully specified (residue 20); also: dimer: two copies joined by BMH, linker at 20 via BMH, other end not in the chain)
measured.parameter: ka
val: 0.083 10^6 M^−1s^−1
